Molecular target: Human recombinant LSD1 protein (Homo sapiens)
Assay: LSD1 demethylase inhibition, Amplex Red peroxide/peroxidase-coupled assay
Settings: further, more elaborate determination (Table 1)
assay_readout: IC50

stdin: Which IC50 value is on record for N[C@H]1CCN(CCN[C@H]2C[C@@H]2c2ccc(-c3cccc(C(F)(F)F)c3)cc2)C1 (racemic) ?
stdout: < 0.1 µM

stdin: Next up: NC(=O)CN[C@H]1C[C@@H]1c1ccc(OCc2ccccc2)cc1 (racemic) [Compound 1]
stdout: < 0.2 µM

# return IC50 for each item in the list
1. CC(C)S(=O)(=O)Nc1cccc(-c2ccc([C@H]3C[C@@H]3N)cc2)c1 (racemic)
2. N[C@H]1C[C@@H]1c1ccc(-c2cccc(O)c2)cc1 (racemic)
3. NC(=O)CN[C@H]1C[C@@H]1c1ccc(OCc2ccccc2)cc1 (single isomer, unassigned) [Compound 2]

stdout:
< 0.07 µM
< 0.07 µM
< 0.2 µM
